# protocol_notes: gradient 5% acetonitrile 3 min, to 50% in 2 min, to 85% in 15 min, held 3 min, 100 µL/min
# applied_conditions: column: Zorbax Extend-C18 2.1 x 50 mm; eluents: water / acetonitrile, 0.1% formic acid
So basically: is RP-LC retention time under 800 s? Then 1.0. Not under? Then 0.0.

# TODO verify RP-LC retention time < 800 s strictly for this compound: CC(C)n1cc(S(=O)(=O)Nc2cc(F)ccc2Cl)c2cccnc21
0.0

# TODO verify RP-LC retention time < 800 s strictly for this compound: O=C(NCC1CCCO1)c1cccn1Cc1noc(-c2ccc(Cl)cc2)n1 (stereo not given)
0.0

# TODO verify RP-LC retention time < 800 s strictly for this compound: COc1ccccc1OCC(=O)NCCN1CCN(c2ccccc2OC)CC1
1.0

# TODO verify RP-LC retention time < 800 s strictly for this compound: Cc1ccc(C)c(CN2CCC(F)(c3nc(-c4cnccn4)no3)CC2)c1
1.0

# TODO verify RP-LC retention time < 800 s strictly for this compound: CCOc1cccc(-c2noc(Cn3ccnc3)n2)c1
1.0

# TODO verify RP-LC retention time < 800 s strictly for this compound: CCOC(=O)c1ccc(NC(=O)Cn2c(=O)nc(N3CCC(C)CC3)c3ccccc32)cc1
0.0

# TODO verify RP-LC retention time < 800 s strictly for this compound: CCCNC(=O)Cn1c(=O)cc(-c2nc(C(C)C)no2)c2ccccc21
0.0

# TODO verify RP-LC retention time < 800 s strictly for this compound: Cn1c(C(=O)NC2CCN(Cc3ccccc3)CC2)cc2c(=O)oc3ccccc3c21
1.0

# TODO verify RP-LC retention time < 800 s strictly for this compound: Cc1ccc(C)c(CN2CCn3c(nn(C)c3=O)C2)c1
1.0

# TODO verify RP-LC retention time < 800 s strictly for this compound: Cc1ccc(C2Cn3nnc(-c4nc(-c5ccccc5F)no4)c3CO2)c(C)c1 (stereo not given)
0.0

# TODO verify RP-LC retention time < 800 s strictly for this compound: Cc1c(C(=O)NC2CCCC2)cnn1-c1ccc(-c2nc(C3CC3)no2)cn1
0.0

# TODO verify RP-LC retention time < 800 s strictly for this compound: COc1ccc(N2CCN(CCNC(=O)c3cccs3)CC2)cc1
1.0

# TODO verify RP-LC retention time < 800 s strictly for this compound: CC(C)CNC(=O)c1ccc(-c2cccs2)nc1
0.0

# TODO verify RP-LC retention time < 800 s strictly for this compound: COc1ccc(N2CCN(C(CNC(=O)C(=O)Nc3ccon3)c3ccco3)CC2)cc1 (stereo not given)
1.0

====

# protocol_notes: gradient 5% acetonitrile 3 min, to 50% in 2 min, to 85% in 15 min, held 3 min, 100 µL/min
# applied_conditions: column: Zorbax Extend-C18 2.1 x 50 mm; eluents: water / acetonitrile, 0.1% formic acid
metric: RP-LC retention time (s)
Numeric answer only, unit s assumed.

Some solved entries appear below for comparison.
[[record]]
compound = "N#Cc1cccc(-c2cn3c(n2)N(C(=O)CC2CCCC2)CCC3)c1"
metric = "RP-LC retention time"
numeric_result = 848

[[record]]
compound = "CCn1cc(CC(=O)NCC2CC2)c2cccnc21"
metric = "RP-LC retention time"
numeric_result = 624

[[record]]
compound = "Cc1ccnc(NC(=O)C2CCCN(c3ncnc4c3nc3n4CCCCC3)C2)c1 (centres undefined)"
metric = "RP-LC retention time"
numeric_result = 643


The value of RP-LC retention time measured for the compound COc1ccc(C2C(C(=O)NCCN(C)C)c3cc(OC)c(OC)cc3C(=O)N2C)cc1OC (centres undefined) turned out to be 589

The value of RP-LC retention time measured for the compound O=C(NC1CC1)C1CCCN(C(=O)c2ccc(F)cc2)C1 (centres undefined) turned out to be 629

The value of RP-LC retention time measured for the compound CCc1ccccc1NC(=O)Cn1cnc2nc(N3CCCC(C(=O)NC4CC4)C3)sc2c1=O (centres undefined) turned out to be 692

The value of RP-LC retention time measured for the compound O=C(Nc1ccc2c(c1)OCO2)C1(c2ccc(F)cc2)CC1 turned out to be 877

The value of RP-LC retention time measured for the compound CCN1CCC(N(Cc2cccs2)C(=O)Nc2ccc(C)cc2)CC1 turned out to be 667

The value of RP-LC retention time measured for the compound COc1ccc(NC(=O)N2CCCC2c2nc(-c3ccccc3OC)no2)c(C)c1 (centres undefined) turned out to be 809

The value of RP-LC retention time measured for the compound CN(C)C(=O)Oc1ccc2c(c1)O/C(=C\C=C\c1ccccc1)C2=O turned out to be 1060

====

# protocol_notes: gradient 5% acetonitrile 3 min, to 50% in 2 min, to 85% in 15 min, held 3 min, 100 µL/min
# applied_conditions: column: Zorbax Extend-C18 2.1 x 50 mm; eluents: water / acetonitrile, 0.1% formic acid
// reported RP-LC retention time per item
Numeric answer only, unit s assumed.

The value of RP-LC retention time measured for the compound Cc1nc2cc(N3CCCC(C(=O)NCCN4CCCCCC4)C3)cnc2nc1C (centres undefined) turned out to be 592

The value of RP-LC retention time measured for the compound O=C(NCc1ccc(F)cc1)C1CCCN(S(=O)(=O)c2c[nH]c(C(=O)N3CCCC3)c2)C1 (centres undefined) turned out to be 747

====

# protocol_notes: gradient 5% acetonitrile 3 min, to 50% in 2 min, to 85% in 15 min, held 3 min, 100 µL/min
# applied_conditions: column: Zorbax Extend-C18 2.1 x 50 mm; eluents: water / acetonitrile, 0.1% formic acid
metric: RP-LC retention time (s)
Numeric answer only, unit s assumed.

[[record]]
compound_structure_string = "COc1cc(NC(=O)C2CCN(c3nccnc3Sc3ccccc3)CC2)cc(OC)c1"
numeric_result = 1040


The value of RP-LC retention time measured for the compound COc1cccc(-c2nnc(Cc3nc(-c4ccc(Cl)cc4)no3)o2)c1 turned out to be 1100

The value of RP-LC retention time measured for the compound COc1ccc(F)cc1S(=O)(=O)N1C[C@@H](F)C[C@H]1C(=O)N1CCCCC1 turned out to be 769

The value of RP-LC retention time measured for the compound C=CCNC(=O)C1CCN(C(=O)Nc2ccc(NC(=O)Nc3ccc(C)cc3C)cc2)CC1 turned out to be 728

The value of RP-LC retention time measured for the compound O=[N+]([O-])c1cc(O)c(O)c([N+](=O)[O-])c1 turned out to be 730

====

# protocol_notes: gradient 5% acetonitrile 3 min, to 50% in 2 min, to 85% in 15 min, held 3 min, 100 µL/min
# applied_conditions: column: Zorbax Extend-C18 2.1 x 50 mm; eluents: water / acetonitrile, 0.1% formic acid
Think of 800 s as a floor: if RP-LC retention time stands on it or above, it is 1; beneath it, 0.

Examples from the recorded data:
[[record]]
compound = "CCCn1cc(CCNS(=O)(=O)c2ccc(C)c(C)c2)c2cccnc21"
class_label = 1

[[record]]
compound = "O=C(NCC1CN(c2ccc3c(c2)OCO3)C(=O)O1)Nc1ccccc1C(F)(F)F (centres undefined)"
class_label = 0

[[record]]
compound = "CCc1nncn1C1CCN(C(=O)Nc2ccc(F)c(Cl)c2)C1 (centres undefined)"
class_label = 0

[[record]]
compound = "Cc1ccc(-c2cc(C(F)(F)F)on2)cc1S(=O)(=O)N1CCCCC1C (centres undefined)"
class_label = 1

[[record]]
compound = "Cc1c(Cl)cccc1NC(=O)N1C[C@@H](F)C[C@H]1C(=O)N1CCCCC1"
class_label = 0


Is RP-LC retention time at least 800 s? Consider O=C(Nc1ccc(F)c(Cl)c1)N1CCN(CCn2c(-c3ccncc3)nc3cccnc32)CC1
0

Is RP-LC retention time at least 800 s? Consider CC(C)N1C(=O)c2cccnc2Sc2cc(C(=O)NC3CC3)ccc21
0

Is RP-LC retention time at least 800 s? Consider CN(C)[C@@H]1CN(C(=O)CCc2c[nH]c3ccccc23)C[C@H]1CO
0

Is RP-LC retention time at least 800 s? Consider Cc1cc(C)cc(NC(=O)C2CC(=O)N(CCc3c[nH]c4ccc(C)cc34)C2)c1 (centres undefined)
1

Is RP-LC retention time at least 800 s? Consider CCOc1cc(=O)n2c(c1C(=O)Nc1ccc(Cl)c(C)c1)CCCC2
1

Is RP-LC retention time at least 800 s? Consider Cc1ccc(-c2c(-c3nn(C)c4ncnc(N5CC[C@H](N6CCCCC6)C5)c34)cnn2C)cc1
0

Is RP-LC retention time at least 800 s? Consider CCCN1CCN(c2ncc3c(n2)CCN(Cc2cc(F)cc(F)c2)C3)CC1
0

Is RP-LC retention time at least 800 s? Consider CCC(C)C(NC(=O)Cc1ccc(OC)cc1Cl)C(=O)Nc1nc2ccccc2[nH]1 (centres undefined)
0

Is RP-LC retention time at least 800 s? Consider COc1ccc(C(=O)Nc2nnc(SCc3nnc(-c4ccccc4)o3)s2)cc1OC
1

Is RP-LC retention time at least 800 s? Consider O=S(=O)(c1ccc2c(c1)-c1oncc1CO2)N1CCN(c2ccccc2)CC1
1

Is RP-LC retention time at least 800 s? Consider CCN1CCN(c2nc(F)c3c(c2F)S(=O)(=O)CCN3C2CCCCC2)CC1
0

Values compiled from the METLIN SMRT retention time set (Domingo-Almenara et al. 2019).
